molecular target: GFP-cIAP2 (Homo sapiens); construct: expressed in transfected cells; assay: GFP-cIAP2 degradation assay (loss of GFP signal, flow cytometry); type: cell-based; conditions: read-out: ΔGFP-cIAP2 EC50, 24 h
Sequence (Q13489 whole entry): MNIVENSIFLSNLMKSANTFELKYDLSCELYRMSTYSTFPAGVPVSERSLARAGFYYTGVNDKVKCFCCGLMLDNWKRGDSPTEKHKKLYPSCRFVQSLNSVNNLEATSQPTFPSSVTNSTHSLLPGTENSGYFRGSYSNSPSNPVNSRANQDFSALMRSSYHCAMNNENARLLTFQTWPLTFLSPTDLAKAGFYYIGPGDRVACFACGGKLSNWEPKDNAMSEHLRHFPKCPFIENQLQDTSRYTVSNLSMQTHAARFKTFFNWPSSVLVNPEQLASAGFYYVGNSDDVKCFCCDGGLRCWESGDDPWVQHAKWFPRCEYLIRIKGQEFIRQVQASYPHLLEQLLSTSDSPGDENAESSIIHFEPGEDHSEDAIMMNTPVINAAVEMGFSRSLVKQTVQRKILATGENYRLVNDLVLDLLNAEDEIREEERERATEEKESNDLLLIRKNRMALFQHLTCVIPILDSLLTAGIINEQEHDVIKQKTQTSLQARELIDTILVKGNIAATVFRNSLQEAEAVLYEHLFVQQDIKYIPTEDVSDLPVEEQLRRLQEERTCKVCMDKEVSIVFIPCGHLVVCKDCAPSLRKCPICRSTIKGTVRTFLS
OBSERVED PROPERTY: DC50 (µM)
Report the figure in µM without appending any unit label.

INPUT: Quick check: DC50 of CC[C@@H](NC(=O)[C@H](C)NC)C(=O)N1C[C@@H](O)C[C@H]1Cc1c(-c2[nH]c3cc(F)ccc3c2C[C@@H]2C[C@H](O)CN2C(=O)[C@@H](CC)NC(=O)[C@H](C)NC)[nH]c2cc(F)ccc12 ?
OUTPUT: 5.54

INPUT: Quick check: DC50 of CN[C@@H](C)C(=O)N[C@H](C(=O)N1CCC[C@H]1Cc1c(-c2ccc(-c3c(C[C@@H]4CCCN4C(=O)[C@@H](NC(=O)[C@H](C)NC)C(C)(C)C)c4ccc(F)cc4n3CCO)cc2)n(CCO)c2cc(F)ccc12)C(C)(C)C [Compound A (2), reference compound] ?
OUTPUT: 0.027

INPUT: Quick check: DC50 of CC[C@H](NC(=O)[C@H](C)NC)C(=O)N1C[C@@H](O)C[C@H]1Cc1c(-c2[nH]c3cc(F)ccc3c2C[C@@H]2C[C@H](O)CN2C(=O)[C@@H](CC)NC(=O)[C@H](C)NC)[nH]c2cc(F)ccc12 ?
OUTPUT: 4.93

* * *

Assign Inhibition of DAP-mediated NF-κB-luc, % Inhibition to each entry below.
Test system: DAP-mediated NF-κB-luc (NOD1)
Experiment: DAP-stimulated NF-kB luciferase reporter gene assay (NOD1 signaling) in HCT116 cells
Type: cell-based, human
Conditions: 10 μM Smac mimetic, HCT116 cells
Experimental: To assay effects on XIAP E3 ubiquitin ligase activity manifested as NF-kB activation, we established both DAP- and MDP-stimulated luciferase reporter gene assays in which Smac mimetics are evaluated in cells at a single 10 μM drug concentration. […] The luciferase activity in each well was measured by using Steady-Glo® Luciferase Assay System (Promega Corp.). 48 μL of luminescence detection reagent was added in each well, followed by brief agitation. […]

INPUT: Quick check: Inhibition of DAP-mediated NF-κB-luc, % Inhibition of CN[C@@H](C)C(=O)N[C@H](C(=O)N1C[C@@H](O)C[C@H]1Cc1c(Cc2[nH]c3cc(F)ccc3c2C[C@@H]2C[C@H](O)CN2C(=O)[C@@H](NC(=O)[C@H](C)NC)C(C)(C)C)[nH]c2cc(F)ccc12)C(C)(C)C [(14)] ?
OUTPUT: 74 (+/−14) %

INPUT: Quick check: Inhibition of DAP-mediated NF-κB-luc, % Inhibition of CN[C@@H](C)C(=O)N[C@H](C(=O)N1C[C@@H](O)C[C@H]1Cc1c(Cc2[nH]c3cc(F)ccc3c2C[C@@H]2C[C@H](O)CN2C(=O)[C@@H](NC(=O)[C@H](C)NC)C(C)(C)C)[nH]c2cc(F)ccc12)C(C)(C)C [(11)] ?
OUTPUT: 100 (n = 1) %

INPUT: Quick check: Inhibition of DAP-mediated NF-κB-luc, % Inhibition of CN[C@@H](C)C(=O)N[C@H](C(=O)N1C[C@@H](O)C[C@H]1Cc1c(Cc2[nH]c3cc(F)ccc3c2C[C@@H]2C[C@H](O)CN2C(=O)[C@@H](NC(=O)[C@H](C)NC)C(C)(C)C)[nH]c2cc(F)ccc12)C(C)(C)C [(12)] ?
OUTPUT: 99 (+/−2) %

INPUT: Quick check: Inhibition of DAP-mediated NF-κB-luc, % Inhibition of CN[C@@H](C)C(=O)N[C@H](C(=O)N1CCC[C@H]1Cc1c(-c2ccc(-c3c(C[C@@H]4CCCN4C(=O)[C@@H](NC(=O)[C@H](C)NC)C(C)(C)C)c4ccc(F)cc4n3CCO)cc2)n(CCO)c2cc(F)ccc12)C(C)(C)C [Compound A (2), reference compound] ?
OUTPUT: 98 (+/−1) %
